Entry source: ChEMBL document CHEMBL1142534

# Tested target: 17-beta-hydroxysteroid dehydrogenase type 2 (Homo sapiens, UniProt P37059)
# Sequence (P37059 whole entry): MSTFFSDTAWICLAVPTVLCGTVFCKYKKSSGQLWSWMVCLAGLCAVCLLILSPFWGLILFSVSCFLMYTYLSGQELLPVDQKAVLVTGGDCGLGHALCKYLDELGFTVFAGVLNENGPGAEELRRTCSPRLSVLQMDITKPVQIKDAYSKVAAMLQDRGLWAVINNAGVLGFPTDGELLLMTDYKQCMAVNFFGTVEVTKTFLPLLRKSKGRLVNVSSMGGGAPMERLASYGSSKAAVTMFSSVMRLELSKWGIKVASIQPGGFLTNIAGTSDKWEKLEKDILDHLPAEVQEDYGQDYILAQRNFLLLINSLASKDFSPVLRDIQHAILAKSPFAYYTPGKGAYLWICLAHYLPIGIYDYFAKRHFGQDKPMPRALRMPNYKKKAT
Readout label: pIC50
Numbers only, as −log10 of the molar value.

`Oc1cccc(-c2ccc(-c3cccc(O)c3)cc2)c1` has a reported pIC50 of 5.65

====

Field: pIC50. Provide a value for each of the molecules that follow.
# Tested target: Cytochrome P450 2C19 (Homo sapiens, UniProt P33261)
# Sequence (P33261 whole entry): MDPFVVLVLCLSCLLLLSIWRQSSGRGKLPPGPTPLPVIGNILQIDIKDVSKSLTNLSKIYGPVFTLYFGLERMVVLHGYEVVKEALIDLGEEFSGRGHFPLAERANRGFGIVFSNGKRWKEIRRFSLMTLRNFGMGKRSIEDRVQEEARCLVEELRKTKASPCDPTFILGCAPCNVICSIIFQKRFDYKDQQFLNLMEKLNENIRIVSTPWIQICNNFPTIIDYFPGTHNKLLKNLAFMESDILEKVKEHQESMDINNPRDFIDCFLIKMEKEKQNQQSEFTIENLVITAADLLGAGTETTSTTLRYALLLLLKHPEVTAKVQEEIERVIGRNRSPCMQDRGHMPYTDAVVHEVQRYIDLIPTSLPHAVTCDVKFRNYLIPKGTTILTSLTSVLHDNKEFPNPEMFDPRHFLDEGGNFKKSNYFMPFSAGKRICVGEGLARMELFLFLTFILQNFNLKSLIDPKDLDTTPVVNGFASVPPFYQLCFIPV
pIC50: −log10 of the molar value.

>>> experimental_result("Oc1cccc(-c2ccc(-c3cccc(O)c3)cc2)c1")
"< 5.40"

--- query ---
Value (pIC50, Cytochrome P450 2C19 (Homo sapiens, UniProt P33261)) for record `Oc1cccc(-c2cnc(-c3cccc(O)c3)s2)c1` = < 5.40
